tested target: OCT2 (Homo sapiens)
protocol notes: Inhibition of OCT2-mediated [3H]MPP+ uptake in HEK-OCT2 cells
measurement setup: test drug 20 µM; MPP+ 50 μM; 3 min; net uptake HEK-OCT2 minus HEK-VC
outcome measure: % Inhibition of OCT2-dependent MPP+ uptake at 20 µM (mean ± SEM) (%)

{"compound": "CNC(=C[N+](=O)[O-])NCCSCc1ccc(CN(C)C)o1", "tested target": "OCT2 (Homo sapiens)", "numeric readout": -7.9}
{"compound": "CN[C@H]1CC[C@@H](c2ccc(Cl)c(Cl)c2)c2ccccc21", "tested target": "OCT2 (Homo sapiens)", "numeric readout": 43.6}
{"compound": "CCCC(CCC)C(=O)O", "tested target": "OCT2 (Homo sapiens)", "numeric readout": -17.3}
{"compound": "CC(C)NCC(O)COc1ccc(COCCOC(C)C)cc1 (centres unmarked)", "tested target": "OCT2 (Homo sapiens)", "numeric readout": -16.1}
{"compound": "CN1CCN2c3ncccc3Cc3ccccc3C2C1 (centres unmarked)", "tested target": "OCT2 (Homo sapiens)", "numeric readout": -4.8}

----------
tested target: OCT2 (Homo sapiens, UniProt O15244)
Sequence (O15244 whole entry): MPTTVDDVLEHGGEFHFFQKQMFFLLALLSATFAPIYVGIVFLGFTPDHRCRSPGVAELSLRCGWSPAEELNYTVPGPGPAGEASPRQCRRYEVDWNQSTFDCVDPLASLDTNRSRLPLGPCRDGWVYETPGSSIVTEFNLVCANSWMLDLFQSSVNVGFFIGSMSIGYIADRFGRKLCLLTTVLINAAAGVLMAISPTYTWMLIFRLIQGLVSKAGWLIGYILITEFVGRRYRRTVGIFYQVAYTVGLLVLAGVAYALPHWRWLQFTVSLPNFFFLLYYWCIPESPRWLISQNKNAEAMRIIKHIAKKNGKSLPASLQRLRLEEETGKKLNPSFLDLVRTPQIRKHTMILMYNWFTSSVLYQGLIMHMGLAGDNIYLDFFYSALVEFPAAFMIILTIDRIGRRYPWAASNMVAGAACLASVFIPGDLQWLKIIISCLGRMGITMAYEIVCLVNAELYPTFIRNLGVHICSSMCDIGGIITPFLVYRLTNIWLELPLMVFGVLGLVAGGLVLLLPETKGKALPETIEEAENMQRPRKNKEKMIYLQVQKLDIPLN
protocol notes: in vitro
measurement setup: human, pH 7.3
# % Inhibition of OCT2-dependent MF uptake at 200 µM (mean ± SEM) values compiled below
outcome measure: % Inhibition of OCT2-dependent MF uptake at 200 µM (mean ± SEM)

{"molecule": "Cc1c(OCC(F)(F)F)ccnc1C[S+]([O-])c1nc2ccccc2[nH]1 (centres unmarked)", "tested target": "OCT2 (Homo sapiens, UniProt O15244)", "numeric readout": 103.0}
{"molecule": "CCCC(CCC)C(=O)O", "tested target": "OCT2 (Homo sapiens, UniProt O15244)", "numeric readout": 27.7}
{"molecule": "O=C(O)Cc1ccccc1Nc1c(Cl)cccc1Cl", "tested target": "OCT2 (Homo sapiens, UniProt O15244)", "numeric readout": 59.1}
{"molecule": "CC(C)n1c(/C=C/C(O)CC(O)CC(=O)O)c(-c2ccc(F)cc2)c2ccccc21 (centres unmarked)", "tested target": "OCT2 (Homo sapiens, UniProt O15244)", "numeric readout": 32.5}
{"molecule": "CN1CCN2c3ncccc3Cc3ccccc3C2C1 (centres unmarked)", "tested target": "OCT2 (Homo sapiens, UniProt O15244)", "numeric readout": 90.7}
{"molecule": "CCOC(=O)C1=C(C)NC(C)=C(C(=O)OC)C1c1cccc([N+](=O)[O-])c1 (centres unmarked)", "tested target": "OCT2 (Homo sapiens, UniProt O15244)", "numeric readout": 53.2}
{"molecule": "OC(CNCC(O)C1CCc2cc(F)ccc2O1)C1CCc2cc(F)ccc2O1 (centres unmarked)", "tested target": "OCT2 (Homo sapiens, UniProt O15244)", "numeric readout": 75.2}
{"molecule": "CN(C)CCC=C1c2ccccc2COc2ccccc21 [Doxepin]", "tested target": "OCT2 (Homo sapiens, UniProt O15244)", "numeric readout": 99.3}
{"molecule": "CN(C)CCC[C@@]1(c2ccc(F)cc2)OCc2cc(C#N)ccc21", "tested target": "OCT2 (Homo sapiens, UniProt O15244)", "numeric readout": 93.8}
{"molecule": "CCCc1nc2c(C)cc(-c3nc4ccccc4n3C)cc2n1Cc1ccc(-c2ccccc2C(=O)O)cc1", "tested target": "OCT2 (Homo sapiens, UniProt O15244)", "numeric readout": 99.2}
{"molecule": "NS(=O)(=O)c1cc2c(cc1Cl)NCNS2(=O)=O [Hydrochlorothiazide]", "tested target": "OCT2 (Homo sapiens, UniProt O15244)", "numeric readout": -38.6}
{"molecule": "CCOC(=O)[C@H](CCc1ccccc1)N[C@@H](C)C(=O)N1CCC[C@H]1C(=O)O", "tested target": "OCT2 (Homo sapiens, UniProt O15244)", "numeric readout": 34.2}
{"molecule": "CNCC[C@H](Oc1cccc2ccccc12)c1cccs1", "tested target": "OCT2 (Homo sapiens, UniProt O15244)", "numeric readout": 98.3}
{"molecule": "CN(C)CCCC1(c2ccc(F)cc2)OCc2cc(C#N)ccc21 (centres unmarked)", "tested target": "OCT2 (Homo sapiens, UniProt O15244)", "numeric readout": 78.9}
{"molecule": "CNCCC(Oc1ccc(C(F)(F)F)cc1)c1ccccc1 (centres unmarked)", "tested target": "OCT2 (Homo sapiens, UniProt O15244)", "numeric readout": 98.5}
{"molecule": "Nc1nc(N)c2nc(-c3ccccc3)c(N)nc2n1", "tested target": "OCT2 (Homo sapiens, UniProt O15244)", "numeric readout": 92.0}
{"molecule": "CC(CN(C)C)CN1c2ccccc2CCc2ccccc21 (centres unmarked)", "tested target": "OCT2 (Homo sapiens, UniProt O15244)", "numeric readout": 100.0}
{"molecule": "OCCN1CCN(CCCN2c3ccccc3C=Cc3ccccc32)CC1", "tested target": "OCT2 (Homo sapiens, UniProt O15244)", "numeric readout": 99.5}
{"molecule": "CCCCc1nc(Cl)c(CO)n1Cc1ccc(-c2ccccc2-c2nn[nH]n2)cc1", "tested target": "OCT2 (Homo sapiens, UniProt O15244)", "numeric readout": 7.4}
{"molecule": "COC(=O)[C@H](c1ccccc1Cl)N1CCc2sccc2C1", "tested target": "OCT2 (Homo sapiens, UniProt O15244)", "numeric readout": 92.8}
{"molecule": "CCOC(=O)[C@H](CCc1ccccc1)N[C@@H](C)C(=O)N1[C@H](C(=O)O)C[C@@H]2CCC[C@@H]21", "tested target": "OCT2 (Homo sapiens, UniProt O15244)", "numeric readout": 35.4}
{"molecule": "CC[C@H](C)C(=O)O[C@H]1C[C@H](O)C=C2C=C[C@H](C)[C@H](CC[C@@H](O)C[C@@H](O)CC(=O)O)[C@H]21", "tested target": "OCT2 (Homo sapiens, UniProt O15244)", "numeric readout": -11.1}
{"molecule": "COc1ccc2[nH]c([S+]([O-])Cc3ncc(C)c(OC)c3C)nc2c1 (centres unmarked)", "tested target": "OCT2 (Homo sapiens, UniProt O15244)", "numeric readout": 107.4}
{"molecule": "C[C@]12C=CC(=O)C=C1CC[C@@H]1[C@@H]2[C@@H](O)C[C@@]2(C)[C@H]1CC[C@]2(O)C(=O)CO", "tested target": "OCT2 (Homo sapiens, UniProt O15244)", "numeric readout": 91.5}
{"molecule": "COc1cccc(C2(O)CCCCC2CN(C)C)c1 (centres unmarked)", "tested target": "OCT2 (Homo sapiens, UniProt O15244)", "numeric readout": 103.7}
{"molecule": "COc1ccc(Cl)cc1C(=O)NCCc1ccc(S(=O)(=O)NC(=O)NC2CCCCC2)cc1 [Glibenclamide]", "tested target": "OCT2 (Homo sapiens, UniProt O15244)", "numeric readout": 87.9}
{"molecule": "C[C@]12CC[C@@H]3c4ccc(O)cc4CC[C@H]3[C@@H]1CC[C@@H]2O", "tested target": "OCT2 (Homo sapiens, UniProt O15244)", "numeric readout": 66.6}
{"molecule": "CCC(C)(C)C(=O)O[C@H]1C[C@@H](C)C=C2C=C[C@H](C)[C@H](CC[C@@H]3C[C@@H](O)CC(=O)O3)[C@H]21", "tested target": "OCT2 (Homo sapiens, UniProt O15244)", "numeric readout": 57.6}
{"molecule": "N[C@@H](Cc1ccc(O)c(O)c1)C(=O)O", "tested target": "OCT2 (Homo sapiens, UniProt O15244)", "numeric readout": 67.3}
{"molecule": "CN1CCN(CCCN2c3ccccc3Sc3ccccc32)CC1", "tested target": "OCT2 (Homo sapiens, UniProt O15244)", "numeric readout": 92.0}
{"molecule": "COc1ccc2c3c1O[C@H]1C[C@@H](O)C=C[C@@]31CCN(C)C2", "tested target": "OCT2 (Homo sapiens, UniProt O15244)", "numeric readout": 92.5}
{"molecule": "Cc1c(N(C)CS(=O)(=O)O)c(=O)n(-c2ccccc2)n1C", "tested target": "OCT2 (Homo sapiens, UniProt O15244)", "numeric readout": 8.4}
{"molecule": "CN(Cc1cnc2nc(N)nc(N)c2n1)c1ccc(C(=O)N[C@@H](CCC(=O)O)C(=O)O)cc1 [Methotrexate]", "tested target": "OCT2 (Homo sapiens, UniProt O15244)", "numeric readout": -5.8}
{"molecule": "O=C(NCCN1CCOCC1)c1ccc(Cl)cc1 [Moclobemide]", "tested target": "OCT2 (Homo sapiens, UniProt O15244)", "numeric readout": 48.9}
